Tested on: MCF7
Procedure Details: NCI tumour cell line growth inhibition, 48 h
The source made the active and inactive calls. Rule as the data show it: active = GI50 up to about 1.1 µM and inactive = higher.
Endpoint Label: GI50

Value wanted: GI50 (MCF7) of entry CCS(=O)(=O)CCn1cnc2c1c(=O)n(C)c(=O)n2C
> 100 µM (inactive)

Value wanted: GI50 (MCF7) of entry Cc1nn(C(=O)Cc2ccccc2)c2c1C(c1ccc(N(C)C)cc1)SC(=N)N2 (stereo not given)
> 100 µM (inactive)

Value wanted: GI50 (MCF7) of entry COc1cc(/N=N/N(C)C)c(C(C)c2c3cc(OC)c(OC)cc3cc[n+]2C)cc1OC (stereo not given)
33.4 µM (inactive)

Value wanted: GI50 (MCF7) of entry CC(C)(C)c1cc2c(O)c(c1)COCc1cc(C(C)(C)C)cc(c1O)COCc1cc(C(C)(C)C)cc(c1O)COC2
> 100 µM (inactive)

Value wanted: GI50 (MCF7) of entry CCN(CC)c1c(C)c(C(=O)OC)nn1-c1ccccc1
80.4 µM (inactive)
